Test system: HeLa cells
Assay: Cell cycle assay in HeLa cells
Assay type: cell-based, human
Details: HeLa, 150 nM, 48 hours
In the oligonucleotide strings, read from the 5' end, every base follows the letter of its sugar. An asterisk marks phosphorothioate; unmarked linkages are phosphodiester. Other units and linkages are bracketed, terminal groups are in braces. A string of capitals states the bases alone. e = 2'-O-(2-methoxyethyl) (MOE); [5mC] = 5-methylcytosine; d = 2'-deoxy (DNA)
Value type: phase of the cell cycle in which cells arrest or delay

Observe how each entry below is paired with its result.
Substance: CAGACTCCGGTGGAATGAAGGA (anti-miR; chemistry not fully specified) [ISIS 327905, uniform 2′-MOE PS; targets mir-205]
Test value: S-phase
//
Substance: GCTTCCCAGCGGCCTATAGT (chemistry not given here) [ISIS 338769]
Test value: S-phase
//
Substance: ISIS 340350: SEQ ID NO: 855, targeted against mir-95 (Mourelatos) (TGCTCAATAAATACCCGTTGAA; all 2'-MOE, all phosphorothioate, methylation of C not given here)
Test value: S-phase
//
Substance: GGCTGTCAATTCATAGGTCAG (anti-miR; chemistry not fully specified) [ISIS 327902, uniform 2′-MOE PS; targets mir-192-1]
Test value: S- and G2/M-phases
//
Substance: ISIS 328383: chimeric 2′-MOE gapmer targeted against the mir-192-1 precursor (eA*eG*eA*eG*eG*dG*dG*dA*dG*dA*d[5mC]*dG*dA*dG*dA*eG*e[5mC]*eA*e[5mC]*eT)
Test value: S- and G2/M-phases

Shift focus to the following entry.
Problem: Dear colleague, I am looking for the recorded phase of the cell cycle in which cells arrest or delay of the following substance: ISIS 338836: SEQ ID NO: 663, targeted against mir-23a (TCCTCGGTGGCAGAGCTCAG; all 2'-MOE, all phosphorothioate, methylation of C not given here)
Result: S-phase
